# Experimental Target: T1, biotinylated native human ApoC3 (human, UniProt P02656 21-99, biotinylated (site not stated))
# T1 construct: also called biotinylated human ApoC3
# T1 sequence (P02656 21-99): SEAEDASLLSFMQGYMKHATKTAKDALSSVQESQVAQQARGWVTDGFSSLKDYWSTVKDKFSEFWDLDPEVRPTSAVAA
# Protocol Description: SPR, IgG1 over biotinylated ApoC3 on SA chip, pH 7.4
Property: kon; scope: individual binders
Lab book: enter the figure in M⁻¹ s⁻¹, no units written.

Here are 4 binders together with their reported answers.
Binder	Unit Tag	Value Reported
mAb15 (antibody, IgG1, V domains shown, Produced as full length IgG1 (kappa) in ExpiCHO-S cells; also called humanized anti-ApoC3 antibody mAb15) VH: QLVESGGGLVQPGGSLRLSCAASGFTFGTYSMRWVRQAPGKGLEWVSSIHTEAGGTAYRDSVKGRFTISRDNAKNTLYLQMNNLKAEDTAIYYCVIAGYSDWGQGTQVTVSS VL: DIVMTQSPLSLPVTPGESASISCKTSQGLVHSGGKTYFYWFLQKPGQSPQQLIYQVSNRASGVPDRFTGSGSGTDFTLKISRVEAEDAGVYYCAQGTYYPHTFGSGTRLEIK	M⁻¹ s⁻¹	516000
mAb13 (antibody, IgG1, V domains shown, Produced as full length IgG1 (kappa) in ExpiCHO-S cells; CDR graft into the closest human germline frameworks; also called humanized anti-ApoC3 antibody mAb13; variant 13) VH: QLLESGGGLVQPGGSLRLSCAASGFTFSTYSMRWVRQVPGKGLEWVSSIHTEGGGTAYRDSVKGRFTISRDNSKNTLYLQMNSLRAEDTAVYYCVIAGYSDWGQGTLVTVSS VL: DIVMTQSPLSLPVTPGEPASISCKTSQGLVHSDGKTYFYWYLQKPGQSPQLLIYQVSNRASGVPDRFSGSGSGTDFTLKISRVEAEDVGVYYCAHGTYYPHTFGQGTRLEIK	M⁻¹ s⁻¹	110000
mAb20 (antibody, IgG1, V domains shown, Produced as full length IgG1 (kappa) in ExpiCHO-S cells; also called humanized anti-ApoC3 antibody mAb20) VH: QLVESGGGLVQPGGSLRLSCAASGFTFSTYSMRWVRQAPGKGLEWVSSIHTDAGGTAYRDSVKGRFTISRDNAKNTLYLQMNNLRPEDTAVYYCVIAGYSDWGQGTLVTVSS VL: DIVMTQSPGSLSVTPGEPASISCKTSQGLVHSGGKTYFYWFLQKPGQSPQQLIYQVSNRASGVPDRFTGSGSGTDFTLKISGVEAEDAGVYYCAHGTYYPHTFGQGTRLEIK	M⁻¹ s⁻¹	831000
mAb8 (antibody, IgG1, V domains shown, Produced as full length IgG1 (kappa) in ExpiCHO-S cells; also called humanized anti-ApoC3 antibody mAb8) VH: QLVESGGGLVQPGGSLRLSCAASGFTFSTYSMRWVRQAPGKGLEWVSSIHTDAGGTAYRDSVKGRFTISRDNAKNTLYLQMNNLRAEDTAVYYCVIAGYSDWGQGTLVTVSS VL: DIVMTQSPLSLSVVPGEPASISCKTSQGLVHSDGKTYFYWFLQKPGQSPQQLIYQVSNRASGVPDRFSGSGSGTDFTLKISRVEAEDVGVYYCAHGTYYPHTFGQGTRLEIK	M⁻¹ s⁻¹	237000

// field: kon; key: mAb12 (antibody, IgG1, V domains shown, Produced as full length IgG1 (kappa) in ExpiCHO-S cells; also called humanized anti-ApoC3 antibody mAb12) VH: QLVESGGGLVQPGGSLRLSCAASGFTFSTYSMRWVRQVPGKGLEWVSSIHTDAGGTAYRDSVKGRFTISRDNAKNTLYLQMNSLRPEDTAIYYCVIAGYSDWGQGTLVTVSS VL: DIVMTQSPLSLSVTPGEPASISCKTSQGLVHSDGKTYFYWFLQKPGQSPQQLIYQVSNRASGVPDRFTGSGSGTDFTLKISRVKAEDVGVYYCAHGTYYPHTFGQGTRLEIK ; value = 228000
